Please provide measured Kd for the entries that follow.
Target: T1, human IL-15Rα (human, UniProt Q13261 31-205, limits assumed)
T1 construct: also called hIL-15Rα; IL-15 receptor alpha
T1 sequence (Q13261 31-205 limits assumed): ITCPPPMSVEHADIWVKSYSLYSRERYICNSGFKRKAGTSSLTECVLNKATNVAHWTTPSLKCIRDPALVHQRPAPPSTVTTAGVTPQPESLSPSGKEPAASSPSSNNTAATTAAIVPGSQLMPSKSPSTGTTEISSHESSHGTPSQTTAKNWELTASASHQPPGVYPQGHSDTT
Assay: SPR, steady state
Give bare numbers, in nM.

Solved cases (3 shown):
Binder	Kd [nM]
hIL-15 V49R/I68K (ligand) NWVNVISDLKKIEDLIQSMHIDATLYTESDVHPSCKVTAMKCFLLELQRISLESGDASIHDTVENLIKLANNSLSSNGNVTESGCKECEELEEKNIKEFLQSFVHIVQMFINTGGGGSGHHHHHHHHGGGLNDIFEAQKIEWHE	94.2
hIL-15 V49R/D30T (ligand) NWVNVISDLKKIEDLIQSMHIDATLYTESTVHPSCKVTAMKCFLLELQRISLESGDASIHDTVENLIILANNSLSSNGNVTESGCKECEELEEKNIKEFLQSFVHIVQMFINTGGGGSGHHHHHHHHGGGLNDIFEAQKIEWHE	184
hIL-15 V49R/V31A (ligand) NWVNVISDLKKIEDLIQSMHIDATLYTESDAHPSCKVTAMKCFLLELQRISLESGDASIHDTVENLIILANNSLSSNGNVTESGCKECEELEEKNIKEFLQSFVHIVQMFINTGGGGSGHHHHHHHHGGGLNDIFEAQKIEWHE	129

Then this binder:
GET /values?readout=Kd&item= hIL-15 V49R/I68L (ligand) NWVNVISDLKKIEDLIQSMHIDATLYTESDVHPSCKVTAMKCFLLELQRISLESGDASIHDTVENLILLANNSLSSNGNVTESGCKECEELEEKNIKEFLQSFVHIVQMFINTGGGGSGHHHHHHHHGGGLNDIFEAQKIEWHE
73.6
